subjectOfTest: T1, AS988 VHH (camel-derived)
T1 construct: One of the 10 different camel-derived nanobodies; not shown: His tag (VHH-His)
measurementNotes: indirect ELISA, VHH coated
reportedMetric: binding result

{"columns": ["binder", "recordedResult"],
 "data": [
  ["R166.E7 (antibody, V domains shown, Rabbit monoclonal; also called clone R166.E7) VH: QSVEESGGRLVTPGTPLTLTCTVSGFSLSSFAMSWVRQAPGKGLEWIGIIYTGGTRDYATWAKGRFTISKTSTTVDLKMTSPTTEDTATYFCARDRSPDYSAAFNLWGQGTLVTVSS VL: IVMTQTPSSKSVPVGDTVTINCQASESVYSNNHLAWFQQKPGQPPKLLIYSASTLESGVPSRFKGSGSGTQFTLTISGVQCDDAATYYCAGYKSSDTDGTSFGGGTEVVVKG", "binds"],
  ["R166.G8 (antibody, V domains shown, Rabbit monoclonal; also called clone R166.G8) VH: LEQSGGGAEGGLVKPGGSLELCCKASGFSLSNIYWICWVRQAPGTGLEWIGCINSGSNSYTYYANWVDGRFTLSRDIDQSTGCLQLNSLTAADTAMYYCARDRDAADTSDWSLNFWGQGTLVTVSS VL: QVLTQTPSSVSAAVGGTVTISCQSSDSVNNDNWLAWYQQKPGQPPKLLIYQASKLASGVPSRFSGSGSGTQFTLTISGVQCDDAANYYCQGTGYSSTWYVAFGGGTEVVVKG", "binds"]
]}
